- System: HL 60 (leukemia)
- experiment-notes: Growth inhibition, methylene blue dye assay, HL60
- Type: cell-based
- condition-notes: Homo sapiens, HL60, 72 h
pIC50: −log10 of the molar value.
property-label: pIC50

{"compound-string": "Cc1cc(=O)oc2c1ccc1oc(C(=O)c3ccccc3)c(-c3ccccc3)c12", "result-value": 6.00}

---

- System: KB-S15 (cervical carcinoma)
- experiment-notes: Growth inhibition, methylene blue dye assay, KB-S15
- Type: cell-based
- condition-notes: Homo sapiens; KB-S15, drug-resistant, paclitaxel-driven selection, 72 h
- Procedure: Compound 1 was evaluated against 21 human tumor cell lines derived from nine cancer cell types: nasopharyngeal carcinoma (HONE-1, CPT 30, and HONE-cis6), cervical carcinoma (KB, KB-CPT100, KB7D, KB-1036, KB-S15, and KB-vin10), gastric carcinoma (TSGH), breast carcinoma (MCF-7), colorectal carcinoma (HT29), non-small cell lung carcinoma (H460), lymphoma (BJAB and H9), leukemia (CEM and HL 60), and hepatocellular carcinoma (Hep 3B, Hep G2, Huh 7, and Hcc36). […]
pIC50: −log10 of the molar value.
The following compounds are shown together with reported pIC50 values.

{"compound-string": "Cc1cc(=O)oc2c1ccc1oc(C(=O)c3ccccc3)c(-c3ccc(Br)cc3)c12", "pIC50": 8.00}
{"compound-string": "Cc1cc(=O)oc2c1ccc1oc(C(=O)c3ccccc3)c(-c3ccccc3)c12", "pIC50": 9.30}

---

- System: H9 (lymphoma)
- experiment-notes: Growth inhibition, methylene blue dye assay, H9
- Type: cell-based
- condition-notes: Homo sapiens, H9, 72 h
- Protocol: Compound 1 was evaluated against 21 human tumor cell lines derived from nine cancer cell types: nasopharyngeal carcinoma (HONE-1, CPT 30, and HONE-cis6), cervical carcinoma (KB, KB-CPT100, KB7D, KB-1036, KB-S15, and KB-vin10), gastric carcinoma (TSGH), breast carcinoma (MCF-7), colorectal carcinoma (HT29), non-small cell lung carcinoma (H460), lymphoma (BJAB and H9), leukemia (CEM and HL 60), and hepatocellular carcinoma (Hep 3B, Hep G2, Huh 7, and Hcc36). […]

{"compound-string": "Cc1cc(=O)oc2c1ccc1oc(C(=O)c3ccccc3)c(-c3ccc(Br)cc3)c12", "IC50, nM": 20}
{"compound-string": "COc1ccc(C(=O)c2oc3ccc4c(C)cc(=O)oc4c3c2-c2ccccc2)cc1", "IC50, nM": 124}
{"compound-string": "Cc1cc(=O)oc2c1ccc1oc(C(=O)c3ccccc3)c(-c3ccccc3)c12", "IC50, nM": 3.5}

---

- System: CPT30 (nasopharyngeal carcinoma)
- experiment-notes: Growth inhibition, methylene blue dye assay, CPT30
- Format: cell-based
- condition-notes: Homo sapiens; CPT30, drug-resistant, camptothecin-driven selection, 72 h
pIC50: −log10 of the molar value.

{"compound": "Cc1cc(=O)oc2c1ccc1oc(C(=O)c3ccccc3)c(-c3ccc(Br)cc3)c12 [Compound 140]", "pIC50": 7.98}
{"compound": "Cc1cc(=O)oc2c1ccc1oc(C(=O)c3ccccc3)c(-c3ccccc3)c12 [Compound 1]", "pIC50": 8.07}

---

- System: HT29 (colorectal carcinoma)
- experiment-notes: Growth inhibition, methylene blue dye assay, HT29
- Assay type: cell-based
- condition-notes: Homo sapiens, HT-29, HT29, 72 h
- Description: Compound 1 was evaluated against 21 human tumor cell lines derived from nine cancer cell types: nasopharyngeal carcinoma (HONE-1, CPT 30, and HONE-cis6), cervical carcinoma (KB, KB-CPT100, KB7D, KB-1036, KB-S15, and KB-vin10), gastric carcinoma (TSGH), breast carcinoma (MCF-7), colorectal carcinoma (HT29), non-small cell lung carcinoma (H460), lymphoma (BJAB and H9), leukemia (CEM and HL 60), and hepatocellular carcinoma (Hep 3B, Hep G2, Huh 7, and Hcc36). […]
pIC50: −log10 of the molar value.
property-label: pIC50

{"compound-string": "Cc1cc(=O)oc2c1ccc1oc(C(=O)c3ccccc3)c(-c3ccccc3)c12", "result-value": 8.15}
